Values from ChEMBL document CHEMBL1145965

Test system: A549
Experiment: Inhibitory activity against A549 lung adenocarcinoma cell line
Format: functional, cell-based
Details: Homo sapiens
Kindly supply the reported IC50 values for the records listed here.
One number for each entry, in µM.

Solved entries (count: 3):
1) O=C1C=CC(O)(c2cc3ccccc3s2)C=C1    2.43
2) O=C1C=CC(O)(c2cc3ccccc3o2)C=C1    2.3
3) O=C1C=CC(O)(c2nc3ccccc3o2)C=C1    2.33

Now, please, on to the next compound.
Field request: IC50 | item: "O=C1C=CC(O)(c2nc3ccccc3s2)C=C1"
2.35

====

Assay: Inhibitory activity against MDA-468 mammary carcinoma cell line
Format: functional, cell-based, Homo sapiens
Settings: mda-mb-468
measured property: pIC50
Numbers only, as −log10 of the molar value.

Any idea what its pIC50 is? The compound is "O=C1C=CC(O)(c2nc3ccccc3s2)C=C1"
6.10
